targetEntity: parietal cell H^+ K^+ ATPase (Oryctolagus cuniculus, UniProt P27112)
Construct: determined in fundic mucosa from New Zealand white rabbits which were homogenized; from tissue; host or cells: fundic mucosa of New Zealand white rabbits, homogenized; membrane protein
Sequence (P27112 2-1035 limits assumed): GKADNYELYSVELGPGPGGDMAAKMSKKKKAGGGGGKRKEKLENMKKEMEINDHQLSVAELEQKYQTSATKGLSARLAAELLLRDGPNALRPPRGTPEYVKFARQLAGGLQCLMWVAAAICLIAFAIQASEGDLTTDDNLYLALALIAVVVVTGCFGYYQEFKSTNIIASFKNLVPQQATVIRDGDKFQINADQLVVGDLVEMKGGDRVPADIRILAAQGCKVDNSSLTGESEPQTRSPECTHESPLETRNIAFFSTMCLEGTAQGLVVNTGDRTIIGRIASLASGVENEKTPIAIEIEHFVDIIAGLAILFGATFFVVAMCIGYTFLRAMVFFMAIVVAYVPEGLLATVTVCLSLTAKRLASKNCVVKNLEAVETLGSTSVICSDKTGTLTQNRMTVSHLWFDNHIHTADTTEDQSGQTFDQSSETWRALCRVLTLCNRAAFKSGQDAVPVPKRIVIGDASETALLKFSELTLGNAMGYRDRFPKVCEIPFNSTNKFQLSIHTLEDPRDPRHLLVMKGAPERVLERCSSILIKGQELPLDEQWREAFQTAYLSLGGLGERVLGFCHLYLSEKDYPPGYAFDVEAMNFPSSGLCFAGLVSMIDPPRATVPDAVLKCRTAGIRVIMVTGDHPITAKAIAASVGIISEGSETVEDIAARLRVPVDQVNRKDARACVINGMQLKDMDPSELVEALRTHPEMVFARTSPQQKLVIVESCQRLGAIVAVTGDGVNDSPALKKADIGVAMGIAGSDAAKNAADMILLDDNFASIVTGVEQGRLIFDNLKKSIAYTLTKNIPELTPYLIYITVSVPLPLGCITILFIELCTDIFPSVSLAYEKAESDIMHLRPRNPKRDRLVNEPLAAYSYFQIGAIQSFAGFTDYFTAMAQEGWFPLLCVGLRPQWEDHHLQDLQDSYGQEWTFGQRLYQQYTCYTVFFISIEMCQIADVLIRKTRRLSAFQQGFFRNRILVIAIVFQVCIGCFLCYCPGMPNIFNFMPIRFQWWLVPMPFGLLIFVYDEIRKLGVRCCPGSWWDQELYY
Sequence (P18597 whole entry partner): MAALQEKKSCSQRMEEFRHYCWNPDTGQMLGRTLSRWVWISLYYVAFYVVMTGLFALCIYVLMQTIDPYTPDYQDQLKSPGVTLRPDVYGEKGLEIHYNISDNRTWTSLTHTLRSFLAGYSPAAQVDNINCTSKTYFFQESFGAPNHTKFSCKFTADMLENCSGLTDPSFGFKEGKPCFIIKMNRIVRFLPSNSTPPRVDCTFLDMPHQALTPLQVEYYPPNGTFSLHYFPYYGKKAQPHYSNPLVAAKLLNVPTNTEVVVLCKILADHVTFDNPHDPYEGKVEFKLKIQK
assayOverview: Inhibition of Parietal Cell H^+ K^+ ATPase
Type: biochemical, New Zealand white rabbits
testSettings: at 10^-4 M; read-out: % Inhibition at Concentration
Classification field: met = inhibition at 100 µM at or over 30%; not met = inhibition at 100 µM under 30%.

Form field: inhibition at 100 µM at least 30%? Entry: COc1ccccc1N1CCN(CCCOc2ccc(-c3csc(-c4ccccc4)n3)cc2)CC1 not met

Given CCCCN(CCCC)CCCOc1ccc(-c2csc(C)n2)cc1 , state whether its inhibition at 100 µM is at least 30%. not met

Reported inhibition at 100 µM at or above 30%? c1ccc(-c2nc(-c3ccc(OCCCn4cncn4)cc3)cs2)cc1 met

Quick check: does CCCCN(CCCC)CCCCCOc1ccc(-c2csc(-c3ccccc3)n2)cc1 have inhibition at 100 µM greater than or equal to 30%? met

Given the entry CCCCN(CCCC)CCCOc1ccc(-c2nc(-c3ccccc3)sc2CC)cc1 , answer whether its inhibition at 100 µM meets or surpasses 30%. not met
